Could you please report measured inhibition for the items listed next?
Molecular target: UniProtKB P41587
Sequence (P41587 whole entry, the tested form may be a part): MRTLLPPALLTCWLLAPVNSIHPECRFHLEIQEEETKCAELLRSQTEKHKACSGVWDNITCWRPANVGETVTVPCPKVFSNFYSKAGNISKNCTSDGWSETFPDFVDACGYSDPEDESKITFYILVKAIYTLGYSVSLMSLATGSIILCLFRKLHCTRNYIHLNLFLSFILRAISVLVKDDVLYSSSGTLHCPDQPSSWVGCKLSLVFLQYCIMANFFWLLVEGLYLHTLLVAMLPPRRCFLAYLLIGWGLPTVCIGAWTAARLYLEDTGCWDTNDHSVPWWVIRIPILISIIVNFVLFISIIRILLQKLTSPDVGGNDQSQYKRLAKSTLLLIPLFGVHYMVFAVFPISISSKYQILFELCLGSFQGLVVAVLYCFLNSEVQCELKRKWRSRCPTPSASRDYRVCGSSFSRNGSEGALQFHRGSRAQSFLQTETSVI
Assay: Antagonist activity at recombinant human N-terminal signal peptide/FLAG epitope-tagged Rluc8-fused VIPR2 expressed in HEK293 cells assessed as inhibition of VIP-induced human mVenus-beta-arrestin2 binding at 1 uM preincubated for 5 mins with luciferin, coelenterazine H followed by VIP addition measured after 5 mins by BRET assay relative to control
Assay type: cell-based
Only the number, expressed in %, is required.

Form field: reported inhibition of O=C(NC1CCCc2ccccc21)[C@@H](Cc1ccccc1)C[C@H](O)CNS(=O)(=O)c1ccc([N+](=O)[O-])cc1 (some centres undefined)
5.9

# get_value(readout='inhibition', item= `O=C(NC1CCCCCC1)[C@@H](Cc1ccccc1)C[C@H](O)CNS(=O)(=O)c1ccc([N+](=O)[O-])cc1` )
3.6

Entry `CC(C)c1ccc(S(=O)(=O)NC[C@@H](O)C[C@@H](Cc2ccccc2)C(=O)N[C@H]2c3ccccc3C[C@H]2O)cc1` : reported inhibition = ?
63.1

Entry `CC(C)(C)c1ccc(S(=O)(=O)NC[C@@H](O)C[C@@H](Cc2ccccc2)C(=O)N[C@H]2c3ccccc3C[C@H]2O)cc1` has what inhibition?
18.1

Could you share which inhibition value was measured for `CS(=O)(=O)NC[C@@H](O)C[C@@H](Cc1ccccc1)C(=O)N[C@H]1c2ccccc2C[C@H]1O` ?
31.6

# lookup: inhibition of `CC(C)CS(=O)(=O)NC[C@@H](O)C[C@@H](Cc1ccccc1)C(=O)N[C@H]1c2ccccc2C[C@H]1O`
3.2

Reported inhibition, molecule `O=C(NCc1ccccc1)[C@@H](Cc1ccccc1)C[C@H](O)CNS(=O)(=O)c1ccc([N+](=O)[O-])cc1` : ____
-4.1

Can you look up the measured inhibition of `NC(=O)[C@@H](Cc1ccccc1)C[C@H](O)CNS(=O)(=O)c1ccc([N+](=O)[O-])cc1` for me?
-9.8

Given `O=C(NC[C@@H](O)C[C@@H](Cc1ccccc1)C(=O)N[C@H]1c2ccccc2C[C@H]1O)c1cccc(CCl)c1` , state its recorded inhibition.
5.7

Data request, read-out inhibition, for `CCCCNC(=O)c1ccc(S(=O)(=O)NC[C@@H](O)C[C@@H](Cc2ccccc2)C(=O)N[C@H]2c3ccccc3C[C@H]2O)cc1`
2.9

Which inhibition value is on record for `Cc1cc(S(=O)(=O)NC[C@@H](O)C[C@@H](Cc2ccccc2)C(=O)N[C@H]2c3ccccc3C[C@H]2O)c(C)cc1Cl` ?
30.2

Dear colleague, I am looking for the recorded inhibition of the following molecule: `O=C(NC[C@@H](O)C[C@@H](Cc1ccccc1)C(=O)N[C@H]1c2ccccc2C[C@H]1O)c1cccc([N+](=O)[O-])c1`
7.4

What value of inhibition has been recorded for this entry: `N#Cc1ccc(S(=O)(=O)NC[C@@H](O)C[C@@H](Cc2ccccc2)C(=O)N[C@H]2c3ccccc3C[C@H]2O)cc1`
59.5

Give the measured inhibition of `C#CCNC(=O)[C@H](Cc1ccccc1)C[C@H](O)CNS(=O)(=O)c1ccc([N+](=O)[O-])cc1` .
7.2

Item `CC(=O)Nc1ccc(S(=O)(=O)NC[C@H](C[C@@H](Cc2ccccc2)C(=O)N[C@H]2c3ccccc3C[C@H]2O)OC(C)=O)cc1` has what recorded inhibition?
-1.8

// lookup inhibition for `CNc1ccc(S(=O)(=O)NC[C@@H](O)C[C@@H](Cc2ccccc2)C(=O)N[C@H]2c3ccccc3C[C@H]2O)cc1`
1.1

Fill in the blank: the reported inhibition of `CCC(=O)Nc1ccc(S(=O)(=O)NC[C@@H](O)C[C@@H](Cc2ccccc2)C(=O)N[C@H]2c3ccccc3C[C@H]2O)cc1` is ____.
-1.2

// returns reported inhibition for input `C=Cc1ccc(C(=O)NC[C@@H](O)C[C@@H](Cc2ccccc2)C(=O)N[C@H]2c3ccccc3C[C@H]2O)cc1`
47.5

Look up inhibition for this molecule: `CC(C)C(=O)Nc1ccc(S(=O)(=O)NC[C@@H](O)C[C@@H](Cc2ccccc2)C(=O)N[C@H]2c3ccccc3C[C@H]2O)cc1`
5.1

Need inhibition, item `O=C(NC[C@@H](O)C[C@@H](Cc1ccccc1)C(=O)N[C@H]1c2ccccc2C[C@H]1O)c1ccncc1`
10.9

Sample `O=C(NC1CCCC1)c1ccc(S(=O)(=O)NC[C@@H](O)C[C@@H](Cc2ccccc2)C(=O)N[C@H]2c3ccccc3C[C@H]2O)cc1` — what was its inhibition?
0.5

So what's the measured inhibition for this one? CC1CCC(NC(=O)[C@@H](Cc2ccccc2)C[C@H](O)CNS(=O)(=O)c2ccc([N+](=O)[O-])cc2)CC1 (some centres undefined)
-0.4

So what's the measured inhibition for this one? `C[C@H](CC(C)(C)C)NC(=O)[C@H](Cc1ccccc1)C[C@H](O)CNS(=O)(=O)c1ccc([N+](=O)[O-])cc1`
3
